src = ChEMBL document CHEMBL2401623

# Tested on: SW1990
# protocol.text: Cytotoxicity against human SW1990 cells assessed as growth inhibition after 72 hrs by MTT assay
# Format: functional, cell-based
# condition: SW1990, 72 h
assay.endpoint: IC50 (nM)
Answer format: numeric, nM implied, no suffix.

COc1ccc(-c2c(-c3cc(OC)c(OC)c(OC)c3)c(=O)c2=O)cc1F ... 27
COc1ccc(-c2c(-c3cc(OC)c(OC)c(OC)c3)c(=O)c2=O)cc1N ... 1770

For the next question, use this molecule.
If you can, please state the reported IC50 value of `COc1ccc(-c2c(-c3cc(OC)c(OC)c(OC)c3)c(=O)c2=O)cc1O` . 245
